Reference source for all entries: PubChem BioAssay AID1159580

- TEST_PROTOCOL: chemical genetic growth profiling, strain panel (AID 1159580);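 further: tested at 20 µM; growth read once vehicle control cultures reached saturation at 30 °C; lower values mean less growth of the strain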
- REPORTED_CONDITIONS: S. cerevisiae deletion strains, growth OD, locus YHR027C, strain rpn1
In all, about 5,500 compounds went through this assay and about 2,000 (36%) were called active. Not shown: some 18% with an inconclusive outcome. No stated cut-off is given here; in the data, active means normalized growth mostly below about 0.91 (no sharp cut-off); inconclusive means no clear call, values can overlap the other calls; inactive means mostly above about 0.92. Some of the results follow.
Outcome codes: active, inactive

>  <COMPOUND>
Cc1cccc(N(C)C(=S)Oc2ccc3ccccc3c2)c1

>  <LABEL_CLASS>
inactive

$$$$
>  <COMPOUND>
Fc1ccc(C(c2ccc(F)cc2)N2CCN(C/C=C/c3ccccc3)CC2)cc1

>  <LABEL_CLASS>
active

$$$$
>  <COMPOUND>
Cc1c(N(C)CS(=O)(=O)O)c(=O)n(-c2ccccc2)n1C

>  <LABEL_CLASS>
inactive

$$$$
>  <COMPOUND>
CCCC(=O)Nc1ncnc2c1ncn2C1O[C@@H]2COP(=O)(O)O[C@H]2[C@H]1OC(=O)CCC (stereo partly specified)

>  <LABEL_CLASS>
inactive

$$$$
>  <COMPOUND>
CN1CCN(C(c2ccccc2)c2ccccc2)CC1

>  <LABEL_CLASS>
inactive

$$$$
>  <COMPOUND>
NCCS

>  <LABEL_CLASS>
inactive

$$$$
>  <COMPOUND>
Cn1c([N+](=O)[O-])cnc1COC(N)=O

>  <LABEL_CLASS>
inactive

$$$$
>  <COMPOUND>
CC1=C(C(=O)O)N2C(=O)[C@@H](NC(=O)[C@H](N)C3=CCC=CC3)C2SC1 (stereo partly specified)

>  <LABEL_CLASS>
inactive

$$$$
>  <COMPOUND>
C[C@]12CCC3C(CC[C@H]4CC(=O)CC[C@]34C)C1CCC2=O (stereo partly specified)

>  <LABEL_CLASS>
inactive

$$$$
>  <COMPOUND>
CC1=C2CCC3C(CC[C@]4(C)C(=O)CCC34)[C@@]2(C)CCC1=O (stereo partly specified)

>  <LABEL_CLASS>
inactive

$$$$
>  <COMPOUND>
CCOc1ccc(Cc2nccc3cc(OCC)c(OCC)cc23)cc1OCC

>  <LABEL_CLASS>
inactive

$$$$
